FYI, the data here is from patent US8680288B2.

- Tested on: human umbilical vein endothelial cell (HUVEC)
- Experiment: Cell viability (MTT) assay on endothelial cells
- Assay type: cell-based
- Conditions used: Concentration of compounds where >95% cells are viable; 24 hrs, MTT
Attribute measured: Max. tolerable dose (µM)

compound="COC(=O)C(CCCC(=O)OC1CCCCC1)Sc1ccccn1 (centres unmarked)" attribute_measured="Max. tolerable dose" result_number=250
compound=CCCCOC(=O)CCSc1ccccn1 attribute_measured="Max. tolerable dose" result_number=500
compound="CCCOC(=O)CCCC(Sc1ccccn1)C(=O)OC (centres unmarked)" attribute_measured="Max. tolerable dose" result_number=250
compound="CCCCCOC(=O)CCCC(Sc1ccccn1)C(=O)OC (centres unmarked)" attribute_measured="Max. tolerable dose" result_number=250
compound=O=C(CCSc1ccccn1)OC1CCCCC1 attribute_measured="Max. tolerable dose" result_number=250
compound=CCOC(=O)CCCCCCSc1ccccn1 attribute_measured="Max. tolerable dose" result_number=500
compound="CCOC(=O)CCCCCCCC(Sc1ccccn1)C(=O)OC (centres unmarked)" attribute_measured="Max. tolerable dose" result_number=250
compound=CCCCCOC(=O)CCSc1ccccn1 attribute_measured="Max. tolerable dose" result_number=500
